# Test system: Calmodulin-1 (Homo sapiens) (UniProt P0DP23)
# Measurement notes: small molecules binding calmodulin-1 with EGTA – biochemical, small-molecule microarray, Cy5-labelled CALM1, profiling panel (AID 1111);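 note: labelled calmodulin applied in Tris saline Tween buffer holding calcium plus EGTA and DTT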
# Applied conditions: Cy5-CALM1 binding fluorescence, higher = more signal
Provide the recorded composite z-score for the entries that follow.
Please give the numeric answer without any surrounding text.

I'd like to know its composite z-score. The compound in question is COC(=O)C1=CC(CCCO)=CC(c2cccs2)N(Cc2cc3c(cc2Br)OCO3)C=C1C(=O)OC (stereo unspecified)
1.69

I'd like to know its composite z-score. The compound in question is `C=C(CCCC)/C(=C/C[C@H](OC(=O)c1ccncc1)c1ccc(OCCO)cc1)c1cnc2ccccc2c1`
0.679

I'd like to know its composite z-score. The compound in question is `COc1ccc(C#Cc2ccc3c(c2)[C@]2(C(=O)N3)[C@H](C(=O)O)[C@H]3C(=O)O[C@H](c4ccccc4)[C@H](c4ccccc4)N3[C@@H]2c2ccccc2OCCO)cc1`
1.04

I'd like to know its composite z-score. The compound in question is `COc1ccc(C(=O)Nc2ccc3c(c2)[C@@]2(O[C@H](CCO)[C@@H]([Si](C)(C)c4ccc(OC)cc4)[C@@H]2C)C(=O)N3Cc2ccccc2)cc1`
0.397

I'd like to know its composite z-score. The compound in question is `CN(C)CCCCNC(=O)[C@H]1C[C@H]2C(=O)N3CCC[C@H]3C(=O)N2[C@H]1c1cccc(OCCO)c1`
0.915

I'd like to know its composite z-score. The compound in question is `C=CCOC(=O)[C@@H]1[C@H]2C(=O)O[C@H](c3ccccc3)[C@H](c3ccccc3)N2[C@H](c2ccc(OCCOC(=O)[C@H]3C[C@H]4C(=O)NCC(=O)N4[C@H]3c3cccc(OCCO)c3)cc2)[C@@]12C(=O)Nc1ccc(I)cc12`
1.33

I'd like to know its composite z-score. The compound in question is C=CC[C@]1(C(=O)NCC(O)CO)COC(c2ccc(OCCCO)cc2)=N1 (stereo partly specified)
-0.189

I'd like to know its composite z-score. The compound in question is `C=C(CCCC)C(=O)CC[C@H](OC(=O)c1ccccc1-c1ccccc1C(=O)O)c1ccc(OCCO)cc1`
0.945

I'd like to know its composite z-score. The compound in question is `C#CCN1[C@@H](Cc2ccccc2)C(=O)O[C@H](Cc2ccccc2)[C@@H]1/C=C/C1CC1`
-0.63

I'd like to know its composite z-score. The compound in question is CCOC(=O)C1=CCC(c2cc3ccccc3[nH]2)N(CCN2CC(C(=O)OCC)=CCC2c2cc3ccccc3[nH]2)C1 (stereo unspecified)
0.884

I'd like to know its composite z-score. The compound in question is CCCCC(O)C1C=CC2C(=O)N(c3ccccc3)C(=O)C2N1Nc1ccc(C#N)cc1 (stereo unspecified)
1.06

I'd like to know its composite z-score. The compound in question is `O=C1O[C@@H](c2ccccc2)[C@@H](c2ccccc2)N2[C@@H](c3ccc(OCCO)cc3)[C@]3(C(=O)Nc4ccc(C#CC5(O)CCCCCC5)cc43)[C@@H](C(=O)O)[C@H]12`
1.29

I'd like to know its composite z-score. The compound in question is `CC(C)NC(=O)[C@@H]1c2ccccc2C(=O)N(Cc2ccc(OC(F)(F)F)cc2)[C@H]1c1ccc(CO)cc1`
0.1

I'd like to know its composite z-score. The compound in question is `COC(=O)[C@@]1(Cc2ccccc2)[C@H]2c3cc(C(=O)N(C)C)n(Cc4ccc(C(F)(F)F)nc4)c3C[C@H]2CN1C(=O)c1ccccc1`
1.9

I'd like to know its composite z-score. The compound in question is `COc1ccc([Si](C)(C)[C@@H]2[C@@H](CC(=O)N3CCC[C@H]3CO)O[C@]3(C(=O)N(Cc4ccc(N5CCOC5=O)cc4)c4ccccc43)[C@H]2C)cc1`
1.08

I'd like to know its composite z-score. The compound in question is CN1C(=O)C2C(C1=O)C1C=C(c3ccc(CO)cc3)C2C(C2CC2)N1C (stereo unspecified)
0.0024

I'd like to know its composite z-score. The compound in question is O=C1NC(=O)C2C1C=CC(C(O)c1ccc([N+](=O)[O-])cc1)N2Nc1ccccn1 (stereo unspecified)
0.259

I'd like to know its composite z-score. The compound in question is COc1ccc(C(O)C2C=CC3C(=O)N(C)C(=O)C3N2N(c2ccccc2)c2ccccc2)cc1 (stereo unspecified)
0.531

I'd like to know its composite z-score. The compound in question is Cc1ccc(C(C)CC(O)C2C=CC3C(=O)N(C)C(=O)C3N2Nc2ccccc2)o1 (stereo unspecified)
0.0895

I'd like to know its composite z-score. The compound in question is `COCCOC(=O)N1C(=O)[C@@]2(c3cc(C#CCCO)ccc31)[C@H](c1ccc(OCCO)cc1)N1[C@H](c3ccccc3)[C@H](c3ccccc3)OC(=O)[C@H]1[C@@H]2C(=O)N1CCCCCCC1`
1.99

I'd like to know its composite z-score. The compound in question is `CCCN1C(=O)[C@]2(CCC(=O)OC(C)(C)C)N=C(c3ccc(OCCCO)cc3)O[C@@H]2c2ccccc21`
-0.0977

I'd like to know its composite z-score. The compound in question is `O=C1c2ccccc2[C@@]2(Cc3ccccc3N(Cc3ccccc3)C2=O)[C@H](c2ccc(CO)cc2)N1Cc1ccccc1Cl`
-0.223

I'd like to know its composite z-score. The compound in question is `CC(C)NC(=O)[C@@H]1c2ccccc2C(=O)N(Cc2ccccc2C(F)(F)F)[C@H]1c1ccc(CO)cc1`
-0.588

I'd like to know its composite z-score. The compound in question is NC(=O)N1C(=O)C2C(C1=O)C1C=C(CCCO)C2C(c2ccc(CN3CCCC3)cc2)N1Cc1cc2c(cc1Br)OCO2 (stereo unspecified)
-0.666

I'd like to know its composite z-score. The compound in question is `COc1ccc([Si](C)(C)[C@@H]2[C@@H](CC(=O)N3Cc4ccccc4C[C@H]3CO)O[C@]3(C(=O)N(Cc4cccc(N5CCOC5=O)c4)c4ccccc43)[C@H]2C)cc1`
-0.695

I'd like to know its composite z-score. The compound in question is `CN(C)CCCNC(=O)[C@@]1(Cc2ccccc2I)c2ccccc2C(=O)N(C2CCCCC2)[C@H]1c1ccc(CO)cc1`
1.71
